- System: SRS-A
- Method Summary: Anti-SRS-A action (SRS-A induced shrinkage of guinea pig ileus)
- Design: species or system guinea pig (Hartley strain male)
- Condition Notes: 10^-6 M, treated five minutes before SRS-A (20 units), 5 min, 1 µM
Everything with SRS-A Inhibition Ratio % 10^-6 M lower than 40% is f; everything else, including exactly 40%, is t.

CCOC(=O)c1cccc2c(=O)c(C)c(-c3ccc(C(C)(C)C)cc3)oc12 ... t
CCOC(=O)c1cccc2c(=O)c(C)c(-c3ccccc3OCC)oc12 ... t
CCCCCCCCc1ccc(-c2oc3c(C(=O)O)cccc3c(=O)c2C)cc1 ... t
CCNC(=O)c1cccc2c(=O)c(C)c(-c3ccccc3OC)oc12 ... t
Cc1ccc(-c2oc3c(C(=O)O)cccc3c(=O)c2C)c(C)c1 ... f
CCOc1ccccc1-c1oc2c(C(=O)N(CC)CC)cccc2c(=O)c1C ... t
CCNC(=O)c1cccc2c(=O)c(C)c(-c3ccccc3OCC)oc12 ... t
CCOC(=O)c1cccc2c(=O)c(C)c(-c3ccc(Cl)cc3Cl)oc12 ... t

Problem: Can "CCN(CC)C(=O)c1cccc2c(=O)c(C)c(-c3ccccc3OC)oc12" be said to have SRS-A Inhibition Ratio % 10^-6 M at or above 40%?
Solution: t

Problem: Same question, "Cc1c(-c2ccc(C(C)(C)C)cc2)oc2c(C(=O)O)cccc2c1=O" this time
Solution: t

Problem: Same question, "Cc1ccc(-c2oc3c(C(=O)OCCO)cccc3c(=O)c2C)c(C)c1" this time
Solution: f

Problem: Same question, "CCc1ccccc1-c1oc2c(C(=O)N(CC)CC)cccc2c(=O)c1C" this time
Solution: t

Problem: Same question, "CCOC(=O)c1cccc2c(=O)c(C)c(-c3ccccc3OC(C)C)oc12" this time
Solution: f

Problem: Same question, COC(=O)c1cccc2c(=O)c(C)c(-c3ccccc3)oc12 [Example 8, Methyl 3-methylflavone-8-carboxylate] this time
Solution: t

Problem: Same question, "CCN(CC)C(=O)c1cccc2c(=O)c(C)c(-c3cc(Cl)ccc3Cl)oc12" this time
Solution: t

Problem: Same question, "COc1cccc(-c2oc3c(C(=O)O)cccc3c(=O)c2C)c1OC" this time
Solution: f
